Biological target: SARS-CoV-2 Spike Protein (S1 Subunit, His Tag) (Sino 40591-V08H) (SARS-CoV-2, UniProt P0DTC2 16-685)
Test: Luminex bead assay, antibody supernatant, antigen on microspheres
reported metric: Binding signal (MFI)
Unit MFI implied. Number only.

Below: 3 binders and their reported Binding signal (MFI).
binder: mAb10982 (antibody, V domains shown) VH: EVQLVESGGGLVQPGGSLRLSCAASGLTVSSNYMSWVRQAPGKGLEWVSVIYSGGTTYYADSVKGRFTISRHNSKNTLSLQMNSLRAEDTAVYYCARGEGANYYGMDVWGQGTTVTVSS VL: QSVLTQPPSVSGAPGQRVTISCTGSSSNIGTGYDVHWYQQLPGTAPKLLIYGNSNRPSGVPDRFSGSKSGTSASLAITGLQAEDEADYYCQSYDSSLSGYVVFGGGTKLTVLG
reported metric: Binding signal (MFI)
unit: MFI
measured: 14000
--
binder: mAb10913 (antibody, V domains shown) VH: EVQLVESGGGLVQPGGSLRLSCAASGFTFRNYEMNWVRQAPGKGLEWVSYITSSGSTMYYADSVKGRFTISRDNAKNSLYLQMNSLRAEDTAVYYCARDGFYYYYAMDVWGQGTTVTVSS VL: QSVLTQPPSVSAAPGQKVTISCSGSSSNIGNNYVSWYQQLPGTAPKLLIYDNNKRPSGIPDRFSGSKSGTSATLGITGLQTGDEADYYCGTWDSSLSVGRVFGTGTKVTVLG
reported metric: Binding signal (MFI)
unit: MFI
measured: 24900
--
binder: mAb10939 (antibody, V domains shown) VH: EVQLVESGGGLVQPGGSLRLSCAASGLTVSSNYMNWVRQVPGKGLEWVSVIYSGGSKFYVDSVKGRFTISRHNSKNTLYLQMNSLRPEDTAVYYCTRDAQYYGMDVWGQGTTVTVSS VL: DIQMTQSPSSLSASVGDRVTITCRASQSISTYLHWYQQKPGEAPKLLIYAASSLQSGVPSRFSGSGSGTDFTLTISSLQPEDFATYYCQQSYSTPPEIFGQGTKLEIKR
reported metric: Binding signal (MFI)
unit: MFI
measured: 23900

--- query ---
For mAb10921 (antibody, V domains shown) VH: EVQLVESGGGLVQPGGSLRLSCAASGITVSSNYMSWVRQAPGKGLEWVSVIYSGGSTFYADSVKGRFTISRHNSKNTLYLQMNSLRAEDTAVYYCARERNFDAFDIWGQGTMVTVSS VL: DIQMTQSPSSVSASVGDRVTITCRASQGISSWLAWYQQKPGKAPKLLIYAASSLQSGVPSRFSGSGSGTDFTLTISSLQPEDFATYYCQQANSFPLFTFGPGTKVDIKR , what is its reported Binding signal (MFI)?
12200
